The origin of these recorded values is patent US6335306B1.

Can you tell me Mdd (Macbeth density of the printed part after coating with dioctyl phthalate) for the items I'm about to list?
- ASSAY_NAME: Color Developer Test Method: solvent resistance of the color image, dioctyl phthalate (Mdd)
- Assay type: physicochemical
- ASSAY_SETUP: colored portion coated with dioctyl phthalate, wiped, left standing 0.5 hour; Macbeth RD-914
// keep it numeric: no unit symbol after the value

# input Any idea what Mdd (Macbeth density of the printed part after coating with dioctyl phthalate) was measured for O=C(Nc1ccc(Cc2ccc(NC(=O)NS(=O)(=O)c3ccccc3)cc2)cc1)NS(=O)(=O)c1ccccc1 ?
# output 0.8

# input Any idea what Mdd (Macbeth density of the printed part after coating with dioctyl phthalate) was measured for Cc1ccc(S(=O)(=O)NC(=O)Nc2ccc(Sc3ccc(NC(=O)NS(=O)(=O)c4ccc(C)cc4)cc3)cc2)cc1 ?
# output 0.96

# input Any idea what Mdd (Macbeth density of the printed part after coating with dioctyl phthalate) was measured for Cc1ccc(S(=O)(=O)NC(=O)Nc2ccc(Cc3ccc(NC(=O)NS(=O)(=O)c4ccc(C)cc4)cc3)cc2)cc1 ?
# output 1.0

# input Any idea what Mdd (Macbeth density of the printed part after coating with dioctyl phthalate) was measured for CC(C)(c1ccc(O)cc1)c1ccc(O)cc1 [2,2-bis(4-hydroxyphenyl)propane, reference compound] ?
# output 0.1

# input Any idea what Mdd (Macbeth density of the printed part after coating with dioctyl phthalate) was measured for Cc1ccc(S(=O)(=O)NC(=O)Nc2ccc(Oc3cccc(NC(=O)NS(=O)(=O)c4ccc(C)cc4)c3)cc2)cc1 ?
# output 0.93

# input Any idea what Mdd (Macbeth density of the printed part after coating with dioctyl phthalate) was measured for COc1ccc(OCCOc2ccc(C(=O)O)c(O)c2)cc1 ?
# output 0.5

# input Any idea what Mdd (Macbeth density of the printed part after coating with dioctyl phthalate) was measured for Cc1ccc(S(=O)(=O)NC(=O)Nc2cccc(S(=O)(=O)c3cccc(NC(=O)NS(=O)(=O)c4ccc(C)cc4)c3)c2)cc1 ?
# output 0.63

# input Any idea what Mdd (Macbeth density of the printed part after coating with dioctyl phthalate) was measured for Cc1ccc(S(=O)(=O)NC(=O)Nc2ccc(S(=O)(=O)c3ccc(NC(=O)NS(=O)(=O)c4ccc(C)cc4)cc3)cc2)cc1 ?
# output 0.81

# input Any idea what Mdd (Macbeth density of the printed part after coating with dioctyl phthalate) was measured for Cc1ccccc1S(=O)(=O)NC(=O)Nc1ccc(Cc2ccc(NC(=O)NS(=O)(=O)c3ccccc3C)cc2)cc1 ?
# output 1.0

# input Any idea what Mdd (Macbeth density of the printed part after coating with dioctyl phthalate) was measured for Cc1ccc(S(=O)(=O)NC(=O)Nc2ccc(Oc3ccc(NC(=O)NS(=O)(=O)c4ccc(C)cc4)cc3)cc2)cc1 ?
# output 1.0

# input Any idea what Mdd (Macbeth density of the printed part after coating with dioctyl phthalate) was measured for Cc1ccc(S(=O)(=O)NC(=O)Nc2ccc(Oc3cccc(Oc4ccc(NC(=O)NS(=O)(=O)c5ccc(C)cc5)cc4)c3)cc2)cc1 ?
# output 1.0
